# System: MDCK-MDR1 cells
# procedure.text: MDCK-MDR1 permeability assay
# Type: in vitro ADME
# stated.conditions: MDCK-MDR1 cells, 10 µM compound, 2 h; actively effluxed if >2
I'd appreciate it if you could supply Efflux Ratio (Papp B-A/A-B) values for the items below.
// keep it numeric: no unit symbol after the value

Recorded Efflux Ratio (Papp B-A/A-B) for `CC(=NOCc1ccc(C)cc1)c1c(C)cc(=O)n(O)c1O` , please? 1.31

Continue with `CC(=NOCc1ccc(F)cc1F)c1c(C)cc(=O)n(O)c1O` 1.04

Try this compound next: `CC(=NOCc1cccc(F)c1)c1c(C)cc(=O)n(O)c1O` 0.84

Same lookup for `CC(=NOCc1ccc(F)c(F)c1)c1c(C)cc(=O)n(O)c1O` , please. 1.01

Item: `CC(=NOCc1cccc(C)c1)c1c(C)cc(=O)n(O)c1O` 1.39

---

# procedure.text: Microsome stability
# Format: in vitro ADME, human
# stated.conditions: human, microsomes
assay.endpoint: Half-life

Can you look up the measured Half-life of `CC(=NOCc1ccc(OCc2ccc3ccccc3c2)cc1)c1c(C)cc(=O)n(O)c1O` for me? 29.6 min

Subsequent entry: `CC(=NOCc1ccc(C(F)(F)F)cc1)c1c(C)cc(=O)n(O)c1O` >30 min

Okay, and `CC(=NOCc1ccc(Cl)cc1)c1c(C)cc(=O)n(O)c1O` ? >30 min

Entry `CC(=NOCc1ccc(C)cc1)c1c(C)cc(=O)n(O)c1O` please >30 min

Now try `CC(=NOCc1ccc(OCc2ccc(C(C)(C)C)cc2)cc1)c1c(C)cc(=O)n(O)c1O` . >30 min

Please do the same for `CC(=NOCc1ccc(F)cc1F)c1c(C)cc(=O)n(O)c1O` as well. >30 min

---

# procedure.text: Microsome stability
# Type: in vitro ADME, human
# stated.conditions: human, microsomes
assay.endpoint: Clearance (intrinsic clearance, Clint) (µL/min/mg)
Give the value, in units of µL/min/mg, as a plain number.

Look up Clearance (intrinsic clearance, Clint): CC(=NOCc1ccc(OCc2ccc(C(C)(C)C)cc2)cc1)c1c(C)cc(=O)n(O)c1O [Compound 1808] 10.1

Now this one: CC(=NOCc1ccc(OCc2ccc3ccccc3c2)cc1)c1c(C)cc(=O)n(O)c1O [Compound 1899] 35.6

Please answer likewise for CC(=NOCc1ccc(C(F)(F)F)cc1)c1c(C)cc(=O)n(O)c1O [Compound 1235] 5.48

Then CC(=NOCc1ccc(C)cc1)c1c(C)cc(=O)n(O)c1O [Compound 1462] ? 34.8

---

# procedure.text: Parallel artificial membrane permeability assay (PAMPA)
# Assay type: in vitro ADME
# stated.conditions: FeSSIF pH 5, replicate 1
Label 1 when Papp 1 (PAMPA) >= 20 ×10⁻⁶ cm/s; otherwise 0.

Record `CC(=NOCc1ccc(F)c(F)c1)c1c(C)cc(=O)n(O)c1O` ; criterion: Papp 1 (PAMPA) no lower than 20 ×10⁻⁶ cm/s. Met? 0

Next up: `CC(=NOCc1cccc(F)c1)c1c(C)cc(=O)n(O)c1O` 0

Please answer likewise for `CC(=NOCc1ccccc1C)c1c(C)cc(=O)n(O)c1O` 1

Okay, and `CC(=NOCc1ccc(OCc2ccc3ccccc3c2)cc1)c1c(C)cc(=O)n(O)c1O` ? 0

`CC(=NOCc1cccc(C)c1)c1c(C)cc(=O)n(O)c1O` , same question. 1

Next up: `CC(=NOCc1cc(F)ccc1F)c1c(C)cc(=O)n(O)c1O` 0
